- Test system: Blumeria graminis f. sp. tritici (the causal agent of wheat powdery mildew)
- METHOD: Test E: preventive spray on wheat seedlings, visual disease rating (100 = 100% control; * 50 ppm, ** 10 ppm, *** 250 ppm)
- Type: in vivo
- MEASUREMENT PARAMETERS: 250 ppm test suspension; 100 = 100% disease control, 0 = no control
Marks after values point to notes of the source that are not given here.
Reported Test E disease control rating values are given for each entry in this list.

- MOL: "CCO/C(=C\\Oc1ccc(Cn2cc(C(=O)N(CC)CC)cn2)cc1)C(F)(F)F"
  Test E disease control rating: "98*** %"
- MOL: "O=C(NCC(F)(F)F)c1cnc(Cc2ccc(OCC3(C(F)(F)F)OCCO3)cc2)o1"
  Test E disease control rating: "92*** %"
- MOL: "CCO/C(=C\\Oc1cccc(Cn2cc(C(=O)NCC3CC3)cn2)c1)C(F)(F)F"
  Test E disease control rating: "0*** %"
- MOL: "CCO/C(=C\\Oc1cccc(Cn2cc(C(=O)NCC(F)F)cn2)c1)C(F)(F)F"
  Test E disease control rating: "0*** %"
- MOL: "CCOC(=COc1ccc(OC(=O)c2ccccc2F)cc1)C(F)(F)F"
  Test E disease control rating: "21*** %"
- MOL: "OC(O)(COc1ccc(Cn2cc(Br)cn2)cc1)C(F)(F)F"
  Test E disease control rating: "97*** %"
- MOL: "CCOC(=O)c1cnn(Cc2ccc(O/C=C(\\OCC)C(F)(F)F)c(C#N)c2)c1"
  Test E disease control rating: "0*** %"
- MOL: "CCOC(=COc1ccc(C2CN(C(C)=O)C2)cc1)C(F)(F)F"
  Test E disease control rating: "98*** %"

----------
Examples of compounds with documented Test C disease control rating follow.
- Test system: Uncinula necator (the causal agent of grape powdery mildew)
- METHOD: Test C: preventive spray on grape seedlings, disease rating (100 = 100% control; * 50 ppm, ** 10 ppm, *** 250 ppm)
- Format: in vivo
- MEASUREMENT PARAMETERS: 50 ppm test suspension; grape seedlings; 100 = 100% disease control

- MOL: "CC(=O)c1ccc(OCC(O)(O)C(F)(F)F)cc1"
  UNIT OF MEASURE: "%"
  Test C disease control rating: 0
- MOL: "CCOC(=O)c1cnnn1Cc1ccc(O/C=C(\\OCC)C(F)(F)F)cc1"
  UNIT OF MEASURE: "%"
  Test C disease control rating: 23

----------
Quick list: Test E disease control rating per entry.
- Test system: Blumeria graminis f. sp. tritici (the causal agent of wheat powdery mildew)
- METHOD: Test E: preventive spray on wheat seedlings, visual disease rating (100 = 100% control; * 50 ppm, ** 10 ppm, *** 250 ppm)
- Type: in vivo
- MEASUREMENT PARAMETERS: 250 ppm test suspension; 100 = 100% disease control, 0 = no control
- Text: General protocol for preparing test suspensions for Tests A-E: the test compounds were first dissolved in acetone in an amount equal to 3% of the final volume and then suspended at the desired concentration (in ppm) in acetone and purified water (50/50 mix by volume) containing 250 ppm of the surfactant […] (polyhydric alcohol esters). The resulting test suspensions were then used in Tests A-E. The test suspension was sprayed to the point of run-off on wheat seedlings. […]
Marks after values point to notes of the source that are not given here.
REPORTED METRIC: Test E disease control rating

- MOL: "CC(=O)N1CC(c2ccc(OCC(O)(O)C(F)(F)F)cc2)C1"
  RESULT: "87*** %"
- MOL: "CCOC(=O)c1cnn(Cc2ccc(OCC(O)(O)C(F)(F)F)c(Cl)c2)c1"
  RESULT: "0*** %"
- MOL: "CCOC(=O)c1cnn(Cc2ccc(OCC(O)(O)C(F)(F)F)c(F)c2F)c1"
  RESULT: "96%"
- MOL: "CCNC(=O)c1cnn(Cc2ccc(O/C=C(\\OCC)C(F)(F)F)cc2)c1"
  RESULT: "69*** %"
- MOL: "CCOC(=O)c1cnn(Cc2ccc(OCC(O)(O)C(F)(F)F)cc2F)c1"
  RESULT: "99*** %"
- MOL: "CCO/C(=C\\Oc1ccc(Cn2cc(C(=O)NCC(=O)OC)cn2)cc1)C(F)(F)F"
  RESULT: "29*** %"
- MOL: "CCO/C(=C\\Oc1ccc(Cn2cc(C(=O)NCC(F)F)cn2)cc1)C(F)(F)F"
  RESULT: "0*** %"
- MOL: "CCOC(=COc1ccc(C2CN(S(=O)(=O)CC)C2)cc1)C(F)(F)F"
  RESULT: "0*** %"
